assay.target: NK1 TACHYKININ RECEPTOR, HUMAN(CHO) (Homo sapiens, UniProt P25103)
Sequence (P25103 whole entry): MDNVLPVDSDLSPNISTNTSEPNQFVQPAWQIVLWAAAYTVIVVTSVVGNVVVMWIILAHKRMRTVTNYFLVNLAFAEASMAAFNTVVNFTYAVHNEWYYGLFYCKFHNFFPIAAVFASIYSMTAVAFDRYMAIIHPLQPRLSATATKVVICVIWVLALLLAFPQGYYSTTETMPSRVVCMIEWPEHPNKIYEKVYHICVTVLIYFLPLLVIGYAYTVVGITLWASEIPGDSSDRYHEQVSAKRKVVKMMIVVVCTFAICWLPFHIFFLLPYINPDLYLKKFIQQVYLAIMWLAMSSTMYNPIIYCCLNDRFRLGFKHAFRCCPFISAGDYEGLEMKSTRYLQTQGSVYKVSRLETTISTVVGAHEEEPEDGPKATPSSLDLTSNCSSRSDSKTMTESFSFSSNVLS
assay.comment: biochemical
Counter-ions that a name gives are not always drawn.
endpoint: Ki (pM)

{"columns": ["molecule", "Ki (pM)"],
 "data": [
  ["c1ccc([C@@H]2NCCC[C@@H]2NCc2cc(-c3cccs3)cc3c2OCC3)cc1 [Example 6, hydrochloride]", 350]
]}

(P) Cl.c1ccc([C@@H]2NCCC[C@@H]2NCc2c3c(cc4c2OCC4)OCC3)cc1 [Example 16, hydrochloride]
(Q) Cl.c1ccc([C@@H]2NCCC[C@@H]2NCc2cc(-n3cnnn3)cc3c2OCC3)cc1 [Example 3, hydrochloride]
(R) c1ccc([C@@H]2NCCC[C@@H]2NCc2cc(-c3ccsc3)cc3c2OCC3)cc1 [Example 7, hydrochloride]
(S) Cl.FC(F)(F)c1ccc(-c2cc3c(c(CN[C@H]4CCCN[C@H]4c4ccccc4)c2)OCC3)cc1 [Example 12, hydrochloride]
Problem: Task field, ranking: reported Ki, descending order. I'd appreciate it if you listed the labels in the requested order.
Result: P, S, R, Q
